From: ChEMBL document CHEMBL1201862

System: Hs-578T
Experiment: NCI tumour cell line growth inhibition, 48 h
The source made the active and inactive calls. Cut-off read from the data, not from the text of the source: active = GI50 up to about 1.1 µM and inactive = higher.
// allowed return values: yes (1) (active), no (0) (inactive)

CC(C)S(=O)(=O)ON1C(=O)c2ccc(N(C)C)cc2C1=O ... no (0)
CN(C)CCN1C(=O)c2ccccc2C1(O)c1ccc(Cl)cc1 (stereo not given) ... no (0)
CCC1(c2ccc(N)cc2)CCC(=O)NC1=O (stereo not given) [AMINOGLUTETHIMIDE] ... no (0)
CCC1(O)CC(OC2CC(N(C)C)C(OC3CC(O)C(OC4OC(C)C(=O)C=C4N)C(C)O3)C(C)O2)c2c(cc3c(c2O)C(=O)c2c(O)cccc2C3=O)C1C(=O)OC (stereo not given) ... yes (1)

### Prompt Field: outcome | Entry: `O=C(/C=C\c1ccc([N+](=O)[O-])cc1)c1ccccc(=O)c1O`
### Response no (0)

### Prompt Called result for `O=S(=O)(N/C(=N\O)Nc1ccc(Cl)cc1)c1cc(S(=O)(=O)c2ccccc2)cs1`
### Response no (0)

### Prompt // param item: `COc1cc2nc(Nc3cccc(Br)c3)nc(Nc3cccc(Br)c3)c2cc1OC` ; yields the recorded call
### Response no (0)

### Prompt Please share the test call associated with CCCCC(C#N)(OP1(=O)OC(c2ccccc2)C(C)N1C)c1ccccc1 (stereo not given) .
### Response no (0)

### Prompt Dear all, I need the recorded test outcome for NC(=O)N/N=C1\CC2C3CC4C2C4C13 (stereo not given) , thank you.
### Response no (0)

### Prompt Short answer needed: outcome of this test for O=C(O)C1C2OC(C(Br)C2Br)C1C(=O)O (stereo not given) ?
### Response no (0)

### Prompt Hi, do you know how `CCOC(=O)c1c(-c2ccccc2)c(-c2ccccc2)cn1C` came out in this test?
### Response no (0)

### Prompt Answer briefly: the call reported for `O=C(Cn1c(=O)oc2ccc(C(=O)c3cccc(Cl)c3)cc21)c1ccccc1` in this assay.
### Response no (0)

### Prompt State the result this test recorded for O=C1CSC2=NC3=C(COC/C3=C\c3ccc(F)cc3)C(c3ccc(F)cc3)N12 (stereo not given) .
### Response no (0)

### Prompt Test call for this molecule, please: `c1ccc(/C(=N\Nc2nc3ccccc3[nH]2)c2ccccn2)cc1`
### Response no (0)

### Prompt Any idea what this test logged for `CN1CCN(c2ccc3[nH]c(-c4ccc5[nH]c(-c6ccc(O)cc6)nc5c4)nc3c2)CC1` ?
### Response no (0)

### Prompt Please let me know the test result on file for `COc1ccc(C2=Nn3c(nc4sc(C)c(C)c4c3=O)SC2)cc1` .
### Response no (0)

### Prompt What outcome does the record of this test show for `Cc1nc2ccc(NCCN(C)C)c3c(=O)c4ccccc4n1c23` ?
### Response no (0)

### Prompt Identify the outcome logged in this assay for the molecule shown: `CN(C)c1ccc(/C=C2\N=C(c3ccccc3)N(c3nc4ccc(Sc5ccccc5)cc4[nH]3)C2=O)cc1`
### Response no (0)

### Prompt Per the assay record, what outcome was assigned to COc1ccc(N2C(=O)C3c4[nH]c5ccccc5c4C4CCC(C(C)(C)C)CC4C3C2=O)c(C)c1 (stereo not given) ?
### Response no (0)

### Prompt Any idea what this test logged for `CC(C)(C)NC(=O)[C@H]1CC[C@H]2[C@@H]3CC=C4NC(=O)CC[C@]4(C)[C@H]3CC[C@]12C` ?
### Response no (0)
